Value source: PubChem BioAssay

- assay overview: small-molecule binders of probe aInhba, primary screen, biochemical, small-molecule microarray, 635/667 nm fluorescence (AID 1148);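 also: score merges 667nm spot fluorescence with signal-to-noise for antibody binding to printed compounds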
- condition context: higher = more signal

{"molecule": "CC(C)Cc1ccc(CN2CC[C@@H](NC(=O)Nc3ccccc3)C2)cc1", "composite z-score": -0.148}
{"molecule": "COCCCNC(=O)[C@]1(CCS(=O)(=O)c2ccccc2)N=C(c2ccc(OCCCO)cc2)O[C@@H]1c1ccccc1CN=[N+]=[N-]", "composite z-score": 0.424}
{"molecule": "O=C1NC(=O)C2C1C=CC(C(O)CCc1ccccc1)N2Nc1ccc(Cl)cc1Cl (stereo not given)", "composite z-score": -0.0581}
{"molecule": "O=C1C2C=CC(C(O)c3ccc(F)cc3)N(n3cnnc3)C2C(=O)N1Cc1ccccc1 (stereo not given)", "composite z-score": 0.0383}
{"molecule": "O=C1O[C@H](c2ccccc2)[C@H](c2ccccc2)N2[C@H]1[C@@H](C(=O)Nc1nc3ccccc3s1)[C@]1(C(=O)Nc3ccc(C#CC4(O)CCCCCC4)cc31)[C@H]2c1ccccc1OCCO", "composite z-score": 0.27}
{"molecule": "COc1ccc([Si](C)(C)[C@@H]2[C@@H](CCn3cc([C@H](O)c4ccccc4)nn3)O[C@]3(C(=O)N(Cc4ccc(N5CCC5=O)cc4)c4ccccc43)[C@H]2C)cc1", "composite z-score": -0.184}
{"molecule": "CC(C)OC(=O)C=C1C[C@@H](c2ccc(C(F)(F)F)cc2)O[C@@H](c2ccc(C(F)(F)F)cc2)O1", "composite z-score": -0.157}
{"molecule": "O=C1N(Cc2ccccc2)c2ccccc2[C@@H]2OC(c3ccc(OCCCO)cc3)=N[C@]12Cc1ccccc1", "composite z-score": -0.0332}
{"molecule": "CCOC(=O)c1ccc(NC(=O)O[C@H]2[C@H](OC(=O)Nc3ccc4c(c3)OCO4)[C@@H](OC(=O)Nc3ccc4c(c3)OCO4)[C@@H](OC)O[C@@H]2CO)cc1", "composite z-score": 0.38}
{"molecule": "COc1ccc(CCNC(=O)[C@@]2(Sc3ccc(C)cc3)CC(=O)N(C3Cc4ccccc4C3)[C@@H]2c2ccc(CO)cc2)cc1", "composite z-score": 0.507}
{"molecule": "COCCOC(=O)N1C(=O)[C@@]2(c3cc(C#CC4(O)CCCCCC4)ccc31)[C@H](c1ccc(O)cc1)N1[C@H](c3ccccc3)[C@H](c3ccccc3)OC(=O)[C@H]1[C@@H]2C(=O)NC[C@H](O)c1ccccc1", "composite z-score": -0.125}
{"molecule": "O=C1C=C(c2ccccc2)C(=O)c2ccc([C@H]3Oc4ccccc4S(=O)(=O)N4CCC[C@@H]34)cc21", "composite z-score": -0.258}
{"molecule": "O=C(CS)NCCCCCCNC(=O)[C@H]1C[C@H]2C(=O)N[C@@H](Cc3ccccc3)C(=O)N2[C@H]1c1ccc(O)cc1", "composite z-score": -0.162}
{"molecule": "COCCOC(=O)N1C(=O)[C@@]2(c3cc(C#CC4=CCCCC4)ccc31)[C@H](c1ccccc1OCCO)N1[C@H](c3ccccc3)[C@H](c3ccccc3)OC(=O)[C@H]1[C@@H]2C(=O)N1CCCCCCC1", "composite z-score": -0.584}
{"molecule": "O=C1O[C@H](c2ccccc2)[C@H](c2ccccc2)N2[C@H]1[C@@H](C(=O)Nc1nc3ccccc3s1)[C@]1(C(=O)Nc3ccc(C#CCCO)cc31)[C@H]2c1ccc(O)cc1", "composite z-score": -0.176}
